Tested system: MeCP2-TBL1 interaction (MeCP2-SmBiT / TBL1-LgBiT) (Mus musculus, UniProt Q9QXE7)
Construct: expressed in transfected cells; crude lysate used as a cell-free assay
Sequence (Q9QXE7 166-527): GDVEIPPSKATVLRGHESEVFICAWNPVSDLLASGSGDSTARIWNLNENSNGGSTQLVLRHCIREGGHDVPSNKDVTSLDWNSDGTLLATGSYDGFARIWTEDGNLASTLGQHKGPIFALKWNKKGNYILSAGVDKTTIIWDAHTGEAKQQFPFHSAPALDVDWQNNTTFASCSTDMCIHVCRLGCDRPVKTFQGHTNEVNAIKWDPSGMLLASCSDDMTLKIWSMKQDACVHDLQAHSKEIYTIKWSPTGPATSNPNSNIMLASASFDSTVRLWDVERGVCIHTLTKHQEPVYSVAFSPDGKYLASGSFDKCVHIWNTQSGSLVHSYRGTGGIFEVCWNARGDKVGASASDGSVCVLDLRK
Assay method text: MeCP2-TBL1 NanoLuc luciferase complementation assay (cell-free, extracts of transfected HEK293 cells);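 further: each compound tested at 20 µM final concentration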
Format: binding, human
Study conditions: primary screen of the Asinex library, sheet "Sargen output Asinex library", one well per compound
Value type: Inhibition percent (%)
Numeric answer only, unit % assumed.

Query: Value lookup for Inhibition percent; key = CC(=O)N[C@@]12CCN(CC(=O)Nc3ccc(C)c(F)c3)C[C@@H]1[C@@H](c1ccccc1)N(C(C)=O)C2 [BDH_33625631]
Reply: 2.58

Query: Proceed to c1ccc(COc2cccc(CN3CCOCC(Cc4ccc5nccn5n4)C3)c2)nc1 (centres unmarked) [BDH_32351403]
Reply: -0.41

Query: Proceed to Cn1cc(CCC(=O)N2CCCC2c2ccc(CNC3Cc4ccccc4C3)cn2)c2ccccc21 (centres unmarked) [BDD_27352850]
Reply: -1.33

Query: Proceed to O=C(c1ccccc1CN1CCOCC1)N1C2CCC1CC(Cc1cncc3ccccc13)C2 (centres unmarked) [BDH_32360830]
Reply: -0.42

Query: Proceed to CCOc1cccc2c1OC(C)(C)[C@@H]1C[C@@H]3CNCC[C@H]3O[C@@H]21 [BDG_33956280]
Reply: -0.94

Query: Proceed to Cc1cc(C)cc(-c2cccc(CC3(C(=O)NCCCN4CCC(C)CC4)CCOCC3)c2)c1 [BDD_24116218]
Reply: -2.01

Query: Proceed to O=C(c1ccccc1CN1CCOCC1)N1CCOCC(Cc2ccc3ccncc3c2)C1 (centres unmarked) [BDH_32372076]
Reply: -4.00

Query: Proceed to Cc1nonc1COc1ccccc1C(=O)N1CCCC(Cc2cccc3cccnc23)CC1 (centres unmarked) [BDH_32354219]
Reply: 4.81

----------
For each entry below, report its Inh (PKA) value.
System: PRKACA-PRKAR2A interaction (SmBiT-PRKACA / LgBiT-PRKAR2A), protein kinase A
Parameters: NanoLuc complementation counter-screen in cell extract, PRKACA with PRKAR2A, loss of luminescence, detects NanoLuc interference
Study conditions: counter-screen for NanoLuc interference; 0.5 h, 20 µM; inhibitor
Structures can show the parent of a compound that is named as a salt.
Numeric answer only, unit % assumed.

Query: # get_value(readout= Inh (PKA), system= PRKACA-PRKAR2A interaction (SmBiT-PRKACA / LgBiT-PRKAR2A), protein kinase A) for O=C1NCCCc2c1oc1ccc(O)cc21
Reply: 2.979

Query: Proceed to CCC1=C[C@@H]2CN(C1)Cc1c([nH]c3ccccc13)[C@@](C(=O)OC)(c1cc3c(cc1OC)N(C)[C@H]1[C@@](O)(C(=O)OC)[C@H](OC(C)=O)[C@]4(CC)C=CCN5CC[C@]31[C@@H]54)C2 [UM0141644:01, Vinorelbine ditartrate]
Reply: 3.937

Query: Proceed to Cn1nnc2c(C(N)=O)ncn2c1=O [UM0135509:03, Temozolomide]
Reply: 1.163

Query: Proceed to Cc1cc(Nc2ncc(Cl)c(Nc3ccccc3S(=O)(=O)C(C)C)n2)c(OC(C)C)cc1C1CCNCC1
Reply: 11.01

Query: Proceed to C=CC(=O)Nc1ccc2ncnc(Nc3ccc(OCc4cccc(F)c4)c(Cl)c3)c2c1
Reply: 12.53

Query: Proceed to CN(C)CC(=O)Nc1ccc2[nH]c(=O)c3ccccc3c2c1 [UM0141738:01, PJ34 hydrochloride]
Reply: 3.156

Query: Proceed to O=C(Nc1ccc(CN2CCOCC2)cc1)c1ccc(-c2cccc(Cl)c2)o1
Reply: 20.99

Query: Proceed to O[C@@H](c1cc(C(F)(F)F)nc2c(C(F)(F)F)cccc12)[C@H]1CCCCN1 [UM0141561:02, Mefloquine hydrochloride]
Reply: 15.66
